Target: PKR R532W (Homo sapiens, UniProt P30613, R532W)
Sequence (P30613 whole entry R532W): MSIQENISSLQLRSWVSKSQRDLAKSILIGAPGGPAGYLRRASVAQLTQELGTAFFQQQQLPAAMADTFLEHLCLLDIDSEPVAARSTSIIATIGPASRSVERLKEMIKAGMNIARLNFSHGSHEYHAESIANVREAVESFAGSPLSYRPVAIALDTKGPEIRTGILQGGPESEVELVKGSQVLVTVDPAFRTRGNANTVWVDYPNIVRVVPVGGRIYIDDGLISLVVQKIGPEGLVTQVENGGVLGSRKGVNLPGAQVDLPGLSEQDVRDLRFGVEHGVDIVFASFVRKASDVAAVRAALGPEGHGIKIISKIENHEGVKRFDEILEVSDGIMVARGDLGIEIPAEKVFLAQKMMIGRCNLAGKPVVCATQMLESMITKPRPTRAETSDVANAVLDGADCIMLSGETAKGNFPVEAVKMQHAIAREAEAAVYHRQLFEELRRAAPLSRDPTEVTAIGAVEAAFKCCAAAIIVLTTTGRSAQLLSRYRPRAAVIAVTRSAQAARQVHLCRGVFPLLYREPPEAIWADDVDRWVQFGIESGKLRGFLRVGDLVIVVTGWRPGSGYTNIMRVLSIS
Experiment: PKR R532W Single Point Percent Activation Assay
Type: biochemical
Settings: compound at 1 μM; read-out: % Act. R532W
Kindly state activation at 1 µM for each of the entries shown.

Problem: Give recorded activation at 1 µM with PKR R532W (Homo sapiens, UniProt P30613, R532W) for the following compound: "COc1cc(NS(=O)(=O)c2cccc3cccnc23)ccc1C(=O)N1CC(O)(c2ccccc2)C1"
Result: 101 to 500%

Problem: Give recorded activation at 1 µM with PKR R532W (Homo sapiens, UniProt P30613, R532W) for the following compound: "COc1cc(NS(=O)(=O)c2cccc3cccnc23)ccc1C(=O)N1CC(O)C1"
Result: 101 to 500%

Problem: Give recorded activation at 1 µM with PKR R532W (Homo sapiens, UniProt P30613, R532W) for the following compound: "Cc1cc(C(=O)N2CC(O)(Cc3ccccc3)C2)ccc1NS(=O)(=O)c1cccc2cccnc12"
Result: 1 to 100%

Problem: Give recorded activation at 1 µM with PKR R532W (Homo sapiens, UniProt P30613, R532W) for the following compound: "O=C(NC1CN(C(=O)c2ccc(NS(=O)(=O)c3cccc4cccnc34)c(F)c2)C1)c1ccccn1"
Result: 1 to 100%

Problem: Give recorded activation at 1 µM with PKR R532W (Homo sapiens, UniProt P30613, R532W) for the following compound: "Cc1cc(C(=O)N2CC(C)(O)C2)ccc1NS(=O)(=O)c1cccc2cccnc12"
Result: 101 to 500%

Problem: Give recorded activation at 1 µM with PKR R532W (Homo sapiens, UniProt P30613, R532W) for the following compound: "COc1cc(NS(=O)(=O)c2cccc3cccnc23)ccc1C(=O)N1CC(OC(=O)NC(C)C)C1"
Result: 101 to 500%

Problem: Give recorded activation at 1 µM with PKR R532W (Homo sapiens, UniProt P30613, R532W) for the following compound: O=C(c1ccc(NS(=O)(=O)c2cccc3cccnc23)cc1)N1CC(OCc2ccccc2)C1 [drawing 12]
Result: 101 to 500%

Problem: Give recorded activation at 1 µM with PKR R532W (Homo sapiens, UniProt P30613, R532W) for the following compound: "O=C(OC1CN(C(=O)c2ccc(NS(=O)(=O)c3cccc4cccnc34)c(F)c2)C1)c1ccccn1"
Result: 101 to 500%

Problem: Give recorded activation at 1 µM with PKR R532W (Homo sapiens, UniProt P30613, R532W) for the following compound: "COC1(Cc2ccccc2)CN(C(=O)c2ccc(NS(=O)(=O)c3cccc4cccnc34)cc2)C1"
Result: 101 to 500%

Problem: Give recorded activation at 1 µM with PKR R532W (Homo sapiens, UniProt P30613, R532W) for the following compound: "COc1ncccc1NC1CN(C(=O)c2ccc(NS(=O)(=O)c3cccc4cccnc34)c(C)c2)C1"
Result: 101 to 500%

Problem: Give recorded activation at 1 µM with PKR R532W (Homo sapiens, UniProt P30613, R532W) for the following compound: "COc1ccccc1OC1CN(C(=O)c2ccc(NS(=O)(=O)c3cccc4cccnc34)cc2)C1"
Result: 1 to 100%

Problem: Give recorded activation at 1 µM with PKR R532W (Homo sapiens, UniProt P30613, R532W) for the following compound: Cc1cc(C(=O)N2CC(Oc3ccccc3)C2)ccc1NS(=O)(=O)c1cccc2cccnc12 [drawing 10]
Result: 1 to 100%

Problem: Give recorded activation at 1 µM with PKR R532W (Homo sapiens, UniProt P30613, R532W) for the following compound: O=C(Nc1ccccn1)OC1CN(C(=O)c2ccc(NS(=O)(=O)c3cccc4cccnc34)cc2)C1 [drawing 65]
Result: 101 to 500%

Problem: Give recorded activation at 1 µM with PKR R532W (Homo sapiens, UniProt P30613, R532W) for the following compound: "Cc1cc(C(=O)N2CC(Nc3ccccc3)C2)ccc1NS(=O)(=O)c1cccc2cccnc12"
Result: 101 to 500%

Problem: Give recorded activation at 1 µM with PKR R532W (Homo sapiens, UniProt P30613, R532W) for the following compound: "Cc1cc(C(=O)N2CC(N(C)Cc3ccccc3)C2)ccc1NS(=O)(=O)c1cccc2cccnc12"
Result: 101 to 500%

Problem: Give recorded activation at 1 µM with PKR R532W (Homo sapiens, UniProt P30613, R532W) for the following compound: "COc1ccncc1NC1CN(C(=O)c2ccc(NS(=O)(=O)c3cccc4cccnc34)c(C)c2)C1"
Result: 1 to 100%

Problem: Give recorded activation at 1 µM with PKR R532W (Homo sapiens, UniProt P30613, R532W) for the following compound: O=C(c1ccc(NS(=O)(=O)c2cccc3cccnc23)cc1)N1CC(Oc2ccccc2)C1 [drawing 4]
Result: 101 to 500%

Problem: Give recorded activation at 1 µM with PKR R532W (Homo sapiens, UniProt P30613, R532W) for the following compound: "Cc1cc(C(=O)N2CC(OC(=O)NC(C)C)C2)ccc1NS(=O)(=O)c1cccc2cccnc12"
Result: 101 to 500%

Problem: Give recorded activation at 1 µM with PKR R532W (Homo sapiens, UniProt P30613, R532W) for the following compound: "C=CCNC(=O)NC1CN(C(=O)c2ccc(NS(=O)(=O)c3cccc4cccnc34)cc2)C1"
Result: 101 to 500%

Problem: Give recorded activation at 1 µM with PKR R532W (Homo sapiens, UniProt P30613, R532W) for the following compound: "COc1ccccc1NC1CN(C(=O)c2ccc(S(=O)(=O)Nc3cccc4cccnc34)cc2)C1"
Result: 101 to 500%

Problem: Give recorded activation at 1 µM with PKR R532W (Homo sapiens, UniProt P30613, R532W) for the following compound: "CN(Cc1ccccc1)C1CN(C(=O)c2ccc(NS(=O)(=O)c3cccc4cccnc34)cc2)C1"
Result: 101 to 500%

Problem: Give recorded activation at 1 µM with PKR R532W (Homo sapiens, UniProt P30613, R532W) for the following compound: "COc1ccccc1OC1CN(C(=O)c2ccc(NS(=O)(=O)c3cccc4cccnc34)c(F)c2)C1"
Result: 101 to 500%

Problem: Give recorded activation at 1 µM with PKR R532W (Homo sapiens, UniProt P30613, R532W) for the following compound: "CN(c1ccccc1)C1CN(C(=O)c2ccc(NS(=O)(=O)c3cccc4cccnc34)cc2)C1"
Result: 101 to 500%

Problem: Give recorded activation at 1 µM with PKR R532W (Homo sapiens, UniProt P30613, R532W) for the following compound: O=C(c1ccc(NS(=O)(=O)c2cccc3cccnc23)cc1)N1CC(O)(c2ccccc2)C1 [drawing 40]
Result: 101 to 500%

Problem: Give recorded activation at 1 µM with PKR R532W (Homo sapiens, UniProt P30613, R532W) for the following compound: "CC(C)NC(=O)NC1CN(C(=O)c2ccc(NS(=O)(=O)c3cccc4cccnc34)cc2)C1"
Result: 101 to 500%

Problem: Give recorded activation at 1 µM with PKR R532W (Homo sapiens, UniProt P30613, R532W) for the following compound: "CC(C)NC(=O)OC1CN(C(=O)c2ccc(NS(=O)(=O)c3cccc4cccnc34)c(F)c2)C1"
Result: 1 to 100%

Problem: Give recorded activation at 1 µM with PKR R532W (Homo sapiens, UniProt P30613, R532W) for the following compound: "COc1ccccc1NC1CN(C(=O)c2ccc(NS(=O)(=O)c3cccc4cccnc34)c(C)c2)C1"
Result: 1 to 100%

Problem: Give recorded activation at 1 µM with PKR R532W (Homo sapiens, UniProt P30613, R532W) for the following compound: "Cc1cc(C(=O)N2CC(Nc3ccncc3)C2)ccc1NS(=O)(=O)c1cccc2cccnc12"
Result: 1 to 100%

Problem: Give recorded activation at 1 µM with PKR R532W (Homo sapiens, UniProt P30613, R532W) for the following compound: "O=C(Nc1ccccn1)NC1CN(C(=O)c2ccc(NS(=O)(=O)c3cccc4cccnc34)cc2)C1"
Result: 101 to 500%

Problem: Give recorded activation at 1 µM with PKR R532W (Homo sapiens, UniProt P30613, R532W) for the following compound: O=C(c1ccc(NS(=O)(=O)c2cccc3cccnc23)c(F)c1)N1CC(Nc2ccccc2)C1 [drawing 22]
Result: 101 to 500%

Problem: Give recorded activation at 1 µM with PKR R532W (Homo sapiens, UniProt P30613, R532W) for the following compound: "O=C(Cc1ccccc1)OC1CN(C(=O)c2ccc(NS(=O)(=O)c3cccc4cccnc34)cc2)C1"
Result: 1 to 100%

Problem: Give recorded activation at 1 µM with PKR R532W (Homo sapiens, UniProt P30613, R532W) for the following compound: "O=C(c1ccc(NS(=O)(=O)c2cccc3cccnc23)cc1)N1CC(NCc2ccccc2)C1"
Result: 101 to 500%

Problem: Give recorded activation at 1 µM with PKR R532W (Homo sapiens, UniProt P30613, R532W) for the following compound: "COc1ccccc1NC1CN(C(=O)c2ccc(NS(=O)(=O)c3cccc4cccnc34)c(F)c2)C1"
Result: 1 to 100%

Problem: Give recorded activation at 1 µM with PKR R532W (Homo sapiens, UniProt P30613, R532W) for the following compound: "COc1cc(C(=O)N2CC(OC(=O)Nc3ccccn3)C2)ccc1NS(=O)(=O)c1cccc2cccnc12"
Result: 1 to 100%

Problem: Give recorded activation at 1 µM with PKR R532W (Homo sapiens, UniProt P30613, R532W) for the following compound: "O=C(OC1CN(C(=O)c2ccc(NS(=O)(=O)c3cccc4cccnc34)cc2)C1)c1ccccn1"
Result: 1 to 100%
